Value source: ChEMBL document CHEMBL1135880

tested.on: Hemoglobin HbA (Homo sapiens) (UniProt P69905+P68871)
Sequence (P68871 2-147 partner limits assumed): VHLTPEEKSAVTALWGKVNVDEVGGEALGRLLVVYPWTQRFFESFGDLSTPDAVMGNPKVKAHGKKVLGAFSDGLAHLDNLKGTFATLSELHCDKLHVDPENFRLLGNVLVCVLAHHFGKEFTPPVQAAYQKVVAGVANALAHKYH
Sequence (P69905 2-142 limits assumed): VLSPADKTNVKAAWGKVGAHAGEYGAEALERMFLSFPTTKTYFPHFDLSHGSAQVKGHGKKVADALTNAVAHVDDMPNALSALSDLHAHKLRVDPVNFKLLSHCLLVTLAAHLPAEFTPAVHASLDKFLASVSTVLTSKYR
assay.info: Oxygen pressure in mmHg at which Hb is 50% saturated with oxygen at 50-60 uM heme concentration and in the presence of 0.5 mM effector.
Assay type: functional
measured.property: P50e (mmHg)

Below, each entry is followed by its recorded P50e result.
{"columns": ["chemical.structure", "unit", "P50e"],
 "data": [
  ["Cc1cc(C)cc(NC(=O)Cc2ccc(OC3(C(=O)N4CCC[C@H]4C(=O)O)CCCC3)cc2)c1", "mmHg", 13.5],
  ["Cc1cc(C)cc(NC(=O)Cc2ccc(OC3(C(=O)N[C@@H](CC(C)C)C(=O)O)CCCC3)cc2)c1", "mmHg", 21.3]
]}

a = Cc1cc(C)cc(NC(=O)Cc2ccc(OC3(C(=O)N[C@@H](CO)C(=O)O)CCCC3)cc2)c1
b = Cc1cc(C)cc(NC(=O)Cc2ccc(OC3(C(=O)N[C@@H](Cc4ccc5[nH]ccc5c4)C(=O)O)CCCC3)cc2)c1
query: Sorting ascending by P50e, which comes first: a or b ? Bench note: the answer is the label of the chosen record.
result: a
(a: 17.1 mmHg, b: 37 mmHg)
